TARGET_UNDER_TEST: T1, human Trop-2 on the surface of cells (CHO/Trop-2 cells; BxPC-3 cells; NCI-N87 cells) (human, UniProt P09758 27-323)
T1 sequence (looked up): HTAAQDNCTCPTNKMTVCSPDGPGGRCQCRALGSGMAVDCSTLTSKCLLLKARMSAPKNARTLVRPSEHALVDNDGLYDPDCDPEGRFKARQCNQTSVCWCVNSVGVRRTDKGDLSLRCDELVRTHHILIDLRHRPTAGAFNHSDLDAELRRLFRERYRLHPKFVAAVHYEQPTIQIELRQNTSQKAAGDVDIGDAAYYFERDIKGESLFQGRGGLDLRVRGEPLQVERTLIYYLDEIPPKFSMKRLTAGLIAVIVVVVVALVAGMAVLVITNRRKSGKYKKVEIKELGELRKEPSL
PROTOCOL_DETAILS: cell-based or functional assay
Form field: Internalization percentage (%), 3 h, BxPC-3 cells, FACS (one value per entry).
QUANTITY_KIND: Internalization percentage (%), 3 h, BxPC-3 cells, FACS

BINDER | ENDPOINT_RESULT
Sacituzumab (antibody, human IgG1, kappa, V domains shown, expressed in HEK293; also called control antibody Sacituzumab; Saituzumab) VH: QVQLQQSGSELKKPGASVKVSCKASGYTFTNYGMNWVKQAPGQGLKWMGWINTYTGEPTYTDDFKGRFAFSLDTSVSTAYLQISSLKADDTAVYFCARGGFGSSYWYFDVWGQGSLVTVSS VL: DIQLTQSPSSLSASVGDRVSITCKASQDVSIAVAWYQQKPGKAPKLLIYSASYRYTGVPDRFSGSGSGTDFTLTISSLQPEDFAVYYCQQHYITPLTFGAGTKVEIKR | 21.8
chimeric antibody ch23-12 (antibody, human IgG1, V domains shown) VH: QVQLQQPGAELVKPGASVKLSCKADGYIFTSYWMHWVKQRPGQGLEWIGEITPSDNYTSYNQKFKGKATLTVDKSSSTAYMQLSSLTSEDSAVYYCTRGHGNYVSFDYWGQGTTLTVSS VL: DIQMTQITSSLSASLGDRVTITCRASQDISNYLNWYQQKPDGTVKLLIYYTSRLHSGVPSRFSGSGSGTDYSLTISNLEQEDIATYFCQQGYTLPPYTFGGGTKLEIK | 21.1
chimeric antibody ch4-3 (antibody, human IgG1, V domains shown) VH: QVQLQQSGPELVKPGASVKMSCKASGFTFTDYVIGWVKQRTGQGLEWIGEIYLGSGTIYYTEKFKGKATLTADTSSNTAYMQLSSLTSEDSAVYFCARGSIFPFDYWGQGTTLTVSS VL: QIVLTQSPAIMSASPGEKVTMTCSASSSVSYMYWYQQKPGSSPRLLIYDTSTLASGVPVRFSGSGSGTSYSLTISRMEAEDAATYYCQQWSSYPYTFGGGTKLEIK | 23.1
chimeric antibody ch3-11 (antibody, human IgG1, V domains shown) VH: QVQLQQPGAELVKPGSSVKLSCKASGYTFTSYWMYWVKQRPGQGLEWIGEINPSNGRTNYNEKFKSKATLTVDKSSSTAYMQFSSLTSEDSAVYYCTREGHNYDGSLGAMDHWGQGTSVTVSS VL: DVVVTQTPLSLPVSFGDQVSISCRSSQSLTNSYGNTFLSWYLHKPGQSPQLLLYGISNRFSGVPDRFSGSGSGTDFTLKINTIKPEDLGMYYCFQSTHQPYTFGGGTKLEIK | -5.13
